- assay details: In Vitro Microsome Stability Assay (human)
- Format: in vitro ADME
- settings: human, 30 min, NADPH
readout type: Liver Microsome Stability-% Left after 30 min w/ NADPH (%) Human

[[record]]
query_smiles = "C=C1CN(S(=O)(=O)c2ccc(N(C)C)cc2)CCCN(CC2CCCCC2)CCCN(S(=O)(=O)N2CCC(Oc3ccccc3)CC2)C1"
value_measured = 8.26


[a] C=C1CN(S(=O)(=O)c2ccc(C)cc2)CCCN(CC2CCCCC2)CCCN(S(=O)(=O)C(C)C)C1
[b] C=C1CN(S(=O)(=O)c2ccc(C)cc2)CCCN(C(=O)OCCC)CCCN(S(=O)(=O)c2ccc(N(C)C)cc2)C1
-- ask Out of a and b , name the one with the higher Liver Microsome Stability-% Left after 30 min w/ NADPH (%) Human. Lab log: write the label of the selected item as the result.
-- reply a

* * *

- Tested on: full length IL-2 (amino acids 1-153) fused to Gaussia Luciferase
- assay details: Dox Induced IL2-FL-Gluc Assay
- Type: cell-based
- settings: 24 hr, Dox inducible, 293FRT/TO cells; read-out: 24 hr Dox Inducible IL2FLGluc 293FRT/TO: Mean IC50
pIC50: −log10 of the molar value.
readout type: pIC50

[[record]]
compound = "CC1c2ccccc2CCN1S(=O)(=O)N1CCCN(CC2CCCCC2)CCCN(S(=O)(=O)c2ccc(N(C)C)cc2)C[C@H](C)C1 (stereo partly drawn)"
value_measured = 6.87


[a] CCc1ccc2c(c1)CCN(S(=O)(=O)N1CCCN(CC3CCCCC3)CCCN(S(=O)(=O)c3ccc(N(C)C)cc3)C[C@H](C)C1)C2
[b] COc1cccc([C@@H]2CCCN(S(=O)(=O)N3CCCN(CC4CCCCC4)CCCN(S(=O)(=O)c4ccc(N(C)C)cc4)C[C@H](C)C3)C2)c1
-- ask Out of a and b , name the one with the higher pIC50. Lab log: write the label of the selected item as the result.
-- reply a

* * *

- assay details: In Vitro Microsome Stability Assay (mouse)
- Assay type: in vitro ADME
- settings: mouse liver microsomes, 30 min w/ NADPH
readout type: Liver Microsome Stability-% Left after 30 min w/ NADPH (%) Mouse

[[record]]
query_smiles = "COc1cccc(N2CCN(S(=O)(=O)N3CCCN(CC4CCCCC4)CCCN(S(=O)(=O)c4ccc(N(C)C)cc4)C[C@H](C)C3)CC2)c1"
value_measured = 39.1

[[record]]
query_smiles = "Cc1cc(F)ccc1N1CCN(S(=O)(=O)N2CCCN(CC3CCCCC3)CCCN(S(=O)(=O)c3ccc(N(C)C)cc3)C[C@H](C)C2)[C@@H](C)C1"
value_measured = 62.5

[[record]]
query_smiles = "COc1ccc(N2CCN(S(=O)(=O)N3CCCN(CC4CCCCC4)CCCN(S(=O)(=O)c4ccc(N(C)C)cc4)C[C@H](C)C3)CC2)cc1F"
value_measured = 55.0


* * *

- Tested on: target signal sequences plus 10 amino acids fused to Gaussia Luciferase
- assay details: Transiently Expressed Dox Induced Signal Sequence-Gluc Assay
- Format: cell-based
- settings: Target IL-23R signal peptide +10 amino acids; read-out: Signal Sequence-Gluc potency
pIC50: −log10 of the molar value.
readout type: pIC50

[P] COc1cc(F)ccc1N1CCN(S(=O)(=O)N2CCCN(CC3CCCCC3)CCCN(S(=O)(=O)c3ccc(N(C)C)cc3)C[C@H](C)C2)CC1
[Q] C[C@H]1CN(S(=O)(=O)c2ccc(N(C)C)cc2)CCCN(CC2CCCCC2)CCCN(S(=O)(=O)N2CCc3cc(Cl)ccc3C2)C1
[R] C[C@H]1CN(S(=O)(=O)c2ccc(N(C)C)cc2)CCCN(CC2CCCCC2)CCCN(S(=O)(=O)N2CCc3c(C#N)cccc3C2)C1
-- ask Take the compounds listed above and rank them by pIC50; the top slot goes to the highest value. When ranking, write the labels in the order the request describes.
-- reply P, Q, R
